Source listed as PubChem BioAssay (NCI).

- System: LOX IMVI melanoma
- test summary: NCI tumour cell line growth inhibition, 48 h
Where a SMILES comes first, the peptide text is derived from it. [ ]: non-standard residue; d: D form. The star is where a group is joined. ξ: configuration not given here. Propanoyl(3-(4-MeO-Ph)) = COc1ccc(CCC(=O)*)cc1; Thr(3ξ) = CC(O)[C@H](N)C(=O)O; dNMeL = CN[C@H](CC(C)C)C(=O)O; OBn = c1ccc(CO*)cc1; ξLac = CC(O)C(=O)O
Collected TGI values appear next to each entry.
endpoint label: TGI

compound	result
COC1(OC)C2(Cl)C(Cl)=C(Cl)C1(Cl)C1COCC12 (configuration not stated)	> 100 µM
C[C@@H](Oc1cc(NS(=O)(=O)N2CCC2)nc(SCc2cccc(F)c2F)n1)[C@@H](O)CO	> 100 µM
CSc1ccc(/C=C2\N=C(c3ccccc3)N(c3nc4c(Cl)cc(Cl)cc4s3)C2=O)cc1	82.1 µM
ClC1(c2ccccc2)c2ccc(Br)cc2-c2cc(Br)ccc21	33.2 µM
C/C(=N\NS(=O)(=O)c1ccc(C)cc1)c1c(O)cc(C)oc1=O	> 100 µM
Oc1ccc2ccccc2c1N=Nc1ccccn1	12.4 µM
O=C(O)CN(c1ccccc1)S(=O)(=O)c1ccc(Cl)cc1	> 100 µM
CC(=O)O[C@H]1C(=O)[C@@]2(C)[C@H]([C@H](OC(=O)c3ccccc3)[C@]3(O)C[C@H](OC(=O)[C@H](O)[C@@H](NC(=O)CC(C)C)c4ccccc4)C(C)=C1C3(C)C)[C@]1(OC(C)=O)CO[C@@H]1C[C@@H]2O	> 10 µM
CC(C)(C)OC(=O)Nc1cc(-c2ccccc2)co1	> 100 µM
CCN(CC)C(=O)CNC(=O)OC(C)(C)C	> 100 µM
COc1ccc(CCC(=O)OC(C)[C@H](NC(=O)[C@@H](CC(C)C)N(C)C(=O)[C@@H]2CCCN2C(=O)C(C)O)C(=O)OCc2ccccc2)cc1 (some centres not stated) (H-[ξLac]P[dNMeL][Thr(3ξ)](Propanoyl(3-(4-MeO-Ph)))-OBn)	41.4 µM
S=P(c1ccccc1)(c1ccccc1)C1(C2(P(=S)(c3ccccc3)c3ccccc3)CC2)CC1	> 100 µM

====

- Test system: NCI-H226 lung
- test summary: NCI tumour cell line growth inhibition, 48 h

compound	TGI
Oc1ccc2ccccc2c1N=Nc1ccccn1	> 87.9 µM
Nc1nc(N)c2nnn(C[C@H]3CC[C@@H](CO)C3)c2n1	> 100 µM
CC12CC3(O)OC(O1)C1(COC(=O)c4ccccc4)C3CC21OC1OC(CO)C(O)C(O)C1O (centres undefined)	> 100 µM
CCC(O)(c1ccc(OC)cc1)C(c1ccc(OCc2ccccc2)cc1)c1ccc(OCc2ccccc2)cc1 (centres undefined)	> 100 µM
CC(C)c1cccc(C(C)C)c1N=C(N)C#N	> 100 µM
CC1=C2C(=O)C(C)(C)C=C2C(=O)[C@](C)(O)C12CC2	> 1 µM
COc1ccc(C(C#N)NCCCCCCNC(C#N)c2ccc(OC)cc2)cc1 (centres undefined)	> 100 µM
COc1cc2c3c(n(Cc4ccccc4)c(=O)c2cc1OC)-c1ccccc1C3=O	> 100 µM
O=c1[nH]c2ccc(CC(=S)N3CCN(c4ccccc4)CC3)cc2o1	> 100 µM

====

Collected TGI values appear next to each entry.
- Tested on: OVCAR-3 ovarian
- test summary: NCI tumour cell line growth inhibition, 48 h
endpoint label: TGI

molecule	endpoint label	result
NNC(=O)CCC(=O)Nc1ccc(Cl)cc1Cl	TGI	> 100 µM
CC(C)CC1[C@@H](OCc2ccccc2)COS(=O)(=O)N1Cc1ccccc1 (some centres not stated)	TGI	> 100 µM
COc1ccc(-c2nc(N)c3ncn(C4OC(CO)C(O)C4O)c3n2)cc1 (configuration not stated)	TGI	> 100 µM
COc1ccc(CCc2ccc(O)c(C(=O)O)c2)cc1OC	TGI	> 100 µM
O=C1/C(=C/c2cccs2)NC(=S)N1CN1CCOCC1	TGI	> 100 µM
COc1cc([C@@H]2c3cc4c(cc3[C@@H](NCc3ccc(C#N)cc3)C3COC(=O)[C@@H]32)OCO4)cc(OC)c1O (some centres not stated)	TGI	5.51 µM
COC(OC)(c1ccccc1)C(I)I	TGI	28.7 µM

====

- Tested on: TK-10 renal
- test summary: NCI tumour cell line growth inhibition, 48 h
Collected TGI values appear next to each entry.

molecule	TGI
C/C(=N\NS(=O)(=O)c1ccc(C)cc1)c1c(O)cc(C)oc1=O	> 100 µM
O=C(O)CN(c1ccccc1)S(=O)(=O)c1ccc(Cl)cc1	> 100 µM
NNC(=O)CCC(=O)Nc1ccc(Cl)cc1Cl	> 100 µM
O=C(c1cc2c(C(F)(F)F)onc2c2ccccc12)C(F)(F)F	42.2 µM
CCCC1C(=O)C(CC)Cc2c(OC)ccc(OC)c21 (centres undefined)	> 100 µM
Cc1ccc(/C=N/Nc2nncc3ccccc23)s1	> 100 µM
C[C@]12CC(C#N)C(=O)C(O)=C1CC[C@@H]1C2CC[C@@]2(C)C1CC[C@@H]2O (some centres undefined)	> 100 µM
COc1ccc(N=C2C(=Nc3ccc(OC)cc3)N(S(=O)(=O)c3ccccc3)C(=S)N2c2ccc(OC)cc2)cc1	> 100 µM
COC1(OC)C2(Cl)C(Cl)=C(Cl)C1(Cl)C1COCC12 (centres undefined)	> 72.3 µM
COc1cc2ccnc3c2c(c1OC)CC1CC(O)C(OC)CC31 (centres undefined)	> 100 µM
COC(=O)c1cc2c3c(cc(O)c2[nH]1)N(C(=O)C1Cc2cc(OC)c(OC)c(OC)c2N1)CC3CCl (centres undefined)	< 0.01 µM
COC(=O)[C@H](Cc1ccccc1)NP(=O)(O)OCC1OC(n2cc(C)c(=O)[nH]c2=O)CC1N=[N+]=[N-] (some centres undefined)	> 100 µM
COc1ccc(C(=O)C(Br)C(Br)C(=O)O)cc1 (centres undefined)	> 100 µM
O=C(/C=C\Nc1ccccc1O)C(Cl)(Cl)Cl	> 100 µM
Fc1cc(-c2ncc(Cl)cc2Cl)c2cccccc1-2	> 100 µM
CCN(CC)C(=O)CNC(=O)OC(C)(C)C	> 100 µM
CC1C(c2ccc3c(c2)OCO3)c2cc3c(cc2OC1N1CCCCC1)OCO3 (centres undefined)	> 100 µM
O=C1CCCCC[C@]12SC[C@H]1CON=C12	> 100 µM
C[C@@H](Oc1cc(NS(=O)(=O)N2CCC2)nc(SCc2cccc(F)c2F)n1)[C@@H](O)CO	> 100 µM
CC(=O)NNC(=S)/N=C/c1c(O)cc(C)oc1=O	> 100 µM
CC(=N/NC(=S)N1CCCCC1)/C(C)=N\NC(=S)N1CCCCC1	3.24 µM
O=C1/C(=C/c2cccs2)NC(=S)N1CN1CCOCC1	> 100 µM
NC(=O)c1cc(Cl)ccc1NC(=O)c1ccccc1-c1ccccc1	48 µM
N#Cc1nn(C2OC(COC(=O)c3ccccc3)C(OC(=O)c3ccccc3)C2OC(=O)c2ccccc2)c2nc[nH]c(=O)c12 (centres undefined)	> 100 µM

====

Collected TGI values appear next to each entry.
- System: COLO 205 colon
- test summary: NCI tumour cell line growth inhibition, 48 h

compound	TGI
COc1ccc(Cl)cc1NC(=O)c1c(NC(=O)C(F)(F)C(F)(F)F)sc2c1CCCCC2	2.8 µM
CC(C)(C)N1CC(OC(N)=O)C1	> 100 µM
Fc1cc(-c2ncc(Cl)cc2Cl)c2cccccc1-2	> 100 µM
COc1cc2c3c(n(Cc4ccccc4)c(=O)c2cc1OC)-c1ccccc1C3=O	> 100 µM
O=S(=O)(O)c1ccc2c(N=Nc3ccccc3Cl)c(O)ccc2c1	> 100 µM
CCOC(=O)COc1c(OC)cc(C2C3=C(COC3=O)Oc3cc4c(cc32)OCO4)cc1OC (stereo not drawn)	4.88 µM
O=C1OC[C@@H]2Cc3c([nH]c4ccccc34)[C@@H](c3cc(O)c(O)c(O)c3)N12	42.6 µM
Cc1ccc(Nc2nc(=O)[nH]c(=O)[nH]2)cc1N=[N+]=[N-]	> 100 µM

====

Collected TGI values appear next to each entry.
- Test system: SW-620 colon
- test summary: NCI tumour cell line growth inhibition, 48 h

molecule	TGI
O=C(N/N=C\c1ccc([N+](=O)[O-])cc1)c1ccccc1Nc1ccccc1C(=O)N/N=C/c1ccc([N+](=O)[O-])cc1	> 100 µM
CC(C(=O)c1ccccc1)C1(O)C(=O)Nc2ccccc21 (stereo not drawn)	> 100 µM
Cc1ccc(/C=N/Nc2nncc3ccccc23)s1	> 100 µM
CC(C)(C)OC(=O)NC(Cc1ccc(OCc2ccccc2)cn1)C(=O)N1CCSCC1 (stereo not drawn)	> 100 µM
N#C/C(=C/C=C/c1ccccc1)S(=O)c1ccccc1 (stereo not drawn)	1.13 µM
CCC(c1ccc(OC)cc1)C(CC)c1ccc(O)c(CN2CCCC2)c1 (stereo not drawn)	9.07 µM
Cc1ccc2cccc3c2c1CC1(C3=O)S(=O)(=O)OCCOS1(=O)=O	> 100 µM
CCOC(=O)COc1c(OC)cc(C2C3=C(COC3=O)Oc3cc4c(cc32)OCO4)cc1OC (stereo not drawn)	> 65.9 µM
Cc1cccc2c1O/C(=C\c1ncc([N+](=O)[O-])n1C)C2=O	0.537 µM
COc1ccc(C[C@H]2COC(=O)[C@@H]2Cc2ccc(O)cc2)cc1OC	> 100 µM
COc1cc(C2SCC(=O)N2c2ccc(Cl)cc2)cc(I)c1O (stereo not drawn)	> 100 µM
CCOP(=O)(OCC)/C(C#N)=C/c1cccn1N(C)C	> 100 µM
O=C1CC2C(=O)C1C(C(=O)O)C2C(=O)O (stereo not drawn)	> 100 µM
O=C(O)CCSC(=O)Nc1cccc([N+](=O)[O-])c1	> 100 µM
O=CC1OC(=O)c2cc(O)c(O)c(O)c2-c2c(cc(O)c(O)c2O)C(=O)OC1C(O)C(O)CO (stereo not drawn)	32.9 µM
O=C1CC(c2ccc[nH]2)=NN1c1ccccc1	> 100 µM
CC1(C)C[C@H](O)[C@H](O)[C@]23C(=O)O[C@H](O)[C@H]2C(C=O)=CC[C@@H]13	> 100 µM
CC(C)NC(=O)OCc1c(COC(=O)NC(C)C)c(-c2ccc[n+](COC(=O)C3CC3)c2)n2c1CCC2	> 100 µM
Cc1ccc(O)c(-c2csc(NCN3CCN(CNc4nc(-c5cc(C)ccc5O)cs4)CC3)n2)c1	> 100 µM
C/C(=N\NS(=O)(=O)c1ccc(C)cc1)c1c(O)cc(C)oc1=O	> 100 µM
O=C1CCCCC[C@]12SC[C@H]1CON=C12	> 100 µM
N=C1C(c2nc3ccccc3s2)=C(O)CN1c1ccc(Cl)cc1Cl	> 100 µM
CC(=O)Nc1ccc2oc(=O)c3ccccc3c2c1	> 100 µM
